- experimentDescription: APR_HepG2_StressKinase_24hr: Apredica 24-hour HepG2 Assay for Stress Kinase (AID 2282922)
- settings: HepG2 stress kinase (phospho-c-Jun) imaging, actives raise or lower the signal
Calls of active or inactive are those of the source. The calls were made as follows: active = hit-call score of the fitted dose curve at least 0.9, where 1 is the maximum; inactive = score below 0.9.
Classes used: 1.0 = active, 0.0 = inactive

{"columns": ["compound", "discreteLabel"],
 "data": [
  ["C#C[C@]1(O)CC[C@H]2[C@@H]3CCC4=CC(=O)CC[C@@H]4[C@H]3CC[C@@]21C", 0.0],
  ["CCc1ccc(CCOc2ccc(CC3SC(=O)NC3=O)cc2)nc1 (centres undefined)", 0.0],
  ["CC[C@H](c1ccc(O)cc1)[C@@H](CC)c1ccc(O)cc1", 0.0],
  ["CCCCCCCCCCCCCCCS(=O)(=O)Oc1ccccc1", 0.0],
  ["c1ccc2cc3c(ccc4ccccc43)cc2c1", 0.0],
  ["CCCCCCCC(=O)O", 0.0],
  ["CC(=O)NC1(c2cccc(F)c2)CCN(CC[C@@]2(c3ccc(Cl)c(Cl)c3)CN(c3ccccc3)C(=O)CO2)CC1", 0.0],
  ["CCCCCCC(=O)O", 0.0],
  ["COCC(C)O (centres undefined)", 0.0],
  ["CCCCCCCCOC(=O)CCCCCCCCC(=O)OCCCCCCCC", 0.0],
  ["CCCCC[C@H](O)CC(=O)CCc1ccc(O)c(OC)c1", 0.0],
  ["CCCOc1sc(C(=O)N2CCC(c3cc(CN)ccc3F)CC2)c(C)c1Br", 0.0],
  ["CCCCOCCO", 0.0],
  ["CN1CCN(c2ccccc2/C=C2\\SCCN(c3ccc(Cl)c(Cl)c3)C2=O)CC1", 0.0],
  ["O=C(O)c1ccccc1C(c1ccc(O)cc1)c1ccc(O)cc1", 0.0],
  ["Cc1oc(-c2ccccc2)nc1CCOc1ccc(C[C@H](Nc2ccccc2C(=O)c2ccccc2)C(=O)O)cc1", 0.0],
  ["OCCC(F)(F)C(F)(F)C(F)(F)C(F)(F)C(F)(F)C(F)(F)C(F)(F)C(F)(F)F", 1.0],
  ["NC(=O)N(O)[C@@H]1C=C[C@H](Oc2cccc(Oc3ccc(F)cc3)c2)C1", 0.0],
  ["CC[C@H](C)[C@@H](C(=O)O)n1sc2ccccc2c1=O", 0.0],
  ["OC1CCCCC1", 0.0],
  ["O=c1c(-c2ccc(O)cc2)coc2cc(O)ccc12", 0.0],
  ["CCc1nn(C2CCCCC2)c2cc(C3(C#N)CCC(C(=O)O)CC3)ccc12 (centres undefined)", 0.0],
  ["N#C[C@@H]1CC(F)(F)CN1C(=O)CNC1CC2CCC(C1)N2c1ncccn1 (some centres undefined)", 0.0],
  ["Cc1cc(CCN2CCN(c3nsc4ccccc34)CC2)cc2c1NC(=O)CC2(C)C", 0.0],
  ["CC(C)(C)c1cccc(C(C)(C)C)c1O", 0.0],
  ["CC#C[C@]1(O)CC[C@H]2[C@@H]3CCC4=CC(=O)CCC4=C3[C@@H](c3ccc(N(C)C)cc3)C[C@@]21C", 0.0],
  ["Cc1cc(C)c(O)c(C)c1", 0.0],
  ["CC(C)(C)c1ccc(O)c(C(C)(C)C)c1", 1.0],
  ["O=C(/C=C/c1ccc(O)cc1)CC(=O)/C=C/c1ccc(O)cc1", 1.0]
]}
